Could you please report measured selectivity ratio for the items listed next?
Assay: Selectivity index, ratio of CC50 for human MT4 cells to EC50 for HIV 1 NL4-3
Type: toxicity, cell-based
Conditions: read-out: Ratio CC50/EC50

Known results for compounds:
Compound	selectivity ratio
N#Cc1ccc(Nc2nc(Cl)cc(Cc3c(F)cccc3F)n2)cc1	> 209
Cc1c(Cc2c(F)cccc2F)nc(Nc2ccc(C#N)cc2)[nH]c1=O	> 11.6
CC(c1ccnc(Nc2ccc(C#N)cc2)n1)c1c(F)cccc1F (centres undefined)	75000

Moving on to another compound below.
Field selectivity ratio (entry Cc1c(C(C)c2c(F)cccc2F)nc(Nc2ccc(C#N)cc2)[nH]c1=O (centres undefined) ) reads 367
